Measured values drawn from patent US12559474B2 for this set.

Consider the following compounds; for each one, report its pIC50.
# SYSTEM_NAME: UniProt:P0DTD1
# METHOD_DESCRIPTION: biochemical
# TEST_SETTINGS: 50% SARS-CoV-2 3CL protease inhibitory concentration; RapidFire MS; read-out: IC50
Numbers only, as −log10 of the molar value.

Please review the following examples before continuing.
Cn1cnc(Cn2c(=O)nc(Nc3cc4cn(C)nc4cc3Cl)n(Cc3cc(F)c(F)c(F)c3)c2=O)c1 | 8.20
COc1ccc(Nc2nc(=O)n(Cc3ncc(C)s3)c(=O)n2Cc2cc(F)c(F)c(F)c2)cc1 | 6.21
COc1ccc(Nc2nc(=O)n(Cc3cc(-c4ccccc4)c[nH]c3=O)c(=O)n2Cc2cc(F)c(F)c(F)c2)cc1 | 6.96
CCn1cc2cc(Nc3nc(=O)n(-c4cncc(C)c4)c(=O)n3Cc3cc(C#N)c(F)cc3C)c(Cl)cc2n1 | 8.82
Cc1cncc(-n2c(=O)nc(Nc3ccc4nn(C)cc4c3)n(Cc3cc(C#N)ccc3C)c2=O)c1 | 8.32

Provide pIC50 values for the following items, in order.
1. COc1ccc(Nc2nc(=O)n(Cc3cc(N4CCCC4)c[nH]c3=O)c(=O)n2Cc2cc(F)c(F)c(F)c2)cc1
2. O=c1[nH]cccc1Cn1c(=O)nc(Nc2cccc3[nH]ccc23)n(Cc2cc(F)c(F)c(F)c2)c1=O
3. Cc1cncc(-n2c(=O)nc(Nc3cc4cn(C)nc4cc3Cl)n(Cc3cc(F)c(F)c(Cl)c3)c2=O)c1
4. Cn1cc2cc(Nc3nc(=O)n(-c4cncc(Cl)c4)c(=O)n3Cc3cc(Cl)c(F)cc3F)ccc2n1
5. O=C(O)c1ccc(Nc2nc(=O)n(Cc3ccc[nH]c3=O)c(=O)n2Cc2cc(F)c(F)c(F)c2)cc1
6. Cc1cncc(-n2c(=O)nc(Nc3ccc4nn(CC(F)F)cc4c3)n(Cc3cc(F)c(F)c(C#N)c3)c2=O)c1

[5.62, 6.89, 8.05, 7.77, 5.46, 8.35]

----------
# SYSTEM_NAME: SARS-CoV-2 3CL protease (Severe acute respiratory syndrome coronavirus 2)
# METHOD_DESCRIPTION: biochemical
# TEST_SETTINGS: 50% SARS-CoV-2 3CL protease inhibitory concentration; RapidFire MS; read-out: IC50
# note: boundary value 8 nM maps to false (0); IC50 below it maps to true (1)

Worked set:
COc1ccc(Nc2nc(=O)n(Cc3cc(C(F)(F)F)c[nH]c3=O)c(=O)n2Cc2cc(F)c(F)c(F)c2)cc1 | false (0)
Cc1cncc(-n2c(=O)nc(Nc3cc4cn(C)nc4cc3Cl)n(Cc3ccc(F)c(C4CC4)c3)c2=O)c1 | false (0)
O=c1[nH]cccc1Cn1c(=O)nc(NCC2CCCC2)n(Cc2cc(F)c(F)c(F)c2)c1=O | false (0)

A record lists CCn1cc2cc(Nc3nc(=O)n(-c4cncc(C)c4)c(=O)n3Cc3cc(Cl)c(F)cn3)c(Cl)cc2n1 . Is its IC50 below 8 nM?
false (0)

A record lists COc1ccc(Nc2nc(=O)n(CC3CCNC3=O)c(=O)n2Cc2cc(F)c(F)c(F)c2)cc1 (racemic) . Is its IC50 below 8 nM?
false (0)

----------
# Tested on: SARS-CoV-2
# METHOD_DESCRIPTION: microbe, parasite or virus in culture
# Type: cell-based
# TEST_SETTINGS: Severe acute respiratory syndrome coronavirus 2, VeroE6/TMPRSS2, 72 h, 50% SARS-CoV-2 infected cell death inhibitory concentration; VeroE6/TMPRSS2 cells, 3 days culture, CellTiter-Glo 2.0
pEC50: −log10 of the molar value.
Returns the class for an entry based on its pEC50. Class ranges: class 1 = under 5, class 2 = from 5 up to 6, class 3 = 6 and over

Worked set:
Cc1cncc(-n2c(=O)nc(Nc3cc4cn(CC(F)F)nc4cc3Cl)n(Cc3ccc(F)c(C#N)c3)c2=O)c1 [II-0089] | class 3
Cn1cc2cc(Nc3nc(=O)n(-c4cncc(Cl)c4)c(=O)n3Cc3cc(F)c(F)c(C#N)c3)ccc2n1 [II-0284] | class 3
Cc1nc2cc(Cl)c(Nc3nc(=O)n(Cc4ccc[nH]c4=O)c(=O)n3Cc3cc(F)c(F)c(F)c3)cc2n1CC(F)F [Compound I-0444] | class 2
Cc1cncc(-n2c(=O)nc(Nc3ccc4nn(C)cc4c3)n(Cc3cc(C#N)c(F)cc3C)c2=O)c1 [II-0290] | class 3
Cn1cnc(Cn2c(=O)nc(Nc3cc4cn(C)nc4cc3Cl)n(Cc3cccc4ccccc34)c2=O)n1 [II-0223] | class 1
Cn1cnc(Cn2cc3cc(Nc4nc(=O)n(Cc5ncn(C)n5)c(=O)n4Cc4cc(Cl)c(F)cc4F)c(Cl)cc3n2)n1 [II-0003] | class 1
CC(=O)Nc1nc2cc(Cl)c(Nc3nc(=O)n(Cc4ccc[nH]c4=O)c(=O)n3Cc3cc(F)c(F)c(F)c3)cc2s1 [Compound I-0465] | class 2
Cn1cnc(Cn2c(=O)nc(Nc3cc4cn(CC(=O)N5CCOCC5)nc4cc3Cl)n(Cc3cc(Cl)c(F)cc3F)c2=O)n1 [II-0132] | class 1

Okay, next one:
Band of Cn1cnc(Cn2c(=O)nc(N3CCc4ccccc4CC3)n(Cc3cc(F)c(F)c(F)c3)c2=O)n1 [II-0550] ?
class 2
